Source of measurements: paper PMC6156383

# subject of test: DOP receptor (Homo sapiens)
# Sequence (P41143 whole entry): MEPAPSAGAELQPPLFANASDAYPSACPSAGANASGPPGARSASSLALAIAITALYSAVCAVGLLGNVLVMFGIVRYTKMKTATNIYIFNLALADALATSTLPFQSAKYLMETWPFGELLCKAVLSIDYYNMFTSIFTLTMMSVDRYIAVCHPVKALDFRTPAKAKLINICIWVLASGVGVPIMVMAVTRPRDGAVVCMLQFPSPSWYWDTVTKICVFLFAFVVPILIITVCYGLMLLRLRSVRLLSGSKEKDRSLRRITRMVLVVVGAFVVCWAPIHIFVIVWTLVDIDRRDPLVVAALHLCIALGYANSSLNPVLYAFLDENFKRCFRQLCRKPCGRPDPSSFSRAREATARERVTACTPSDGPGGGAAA
# Condition met = Ki below 3 nM (exclusive); Condition not met = Ki at/above 3 nM

>>> df
                                   compound                cat
0  O=C(Cc1ccccc1)O[C@@]12CCC(=O)[C@@H]3Oc4c(O)ccc5c4[C@@]31CCN(CC1CC1)[C@@H]2C5 [Compound 7a]  Condition not met
1  COc1ccc(CC(=O)O[C@@]23CCC(=O)[C@@H]4Oc5c(O)ccc6c5[C@@]42CCN(CC2CC2)[C@@H]3C6)cc1 [Compound 7f]      Condition met
2  COc1cccc(CC(=O)O[C@@]23CCC(=O)[C@@H]4Oc5c(O)ccc6c5[C@@]42CCN(CC2CC2)C3C6)c1 [Compound 7e]  Condition not met
3  Cc1ccc(CC(=O)O[C@@]23CCC(=O)[C@@H]4Oc5c(O)ccc6c5[C@@]42CCN(CC2CC2)[C@@H]3C6)cc1 [Compound 7b]      Condition met
4  O=C(Cc1ccc(Cl)cc1)O[C@@]12CCC(=O)[C@@H]3Oc4c(O)ccc5c4[C@@]31CCN(CC1CC1)C2C5 [Compound 7j]  Condition not met

Consider the record given below.
Exam item: Could you please tell me whether Ki recorded for O=C(Cc1ccc2c(c1)OCO2)O[C@@]12CCC(=O)[C@@H]3Oc4c(O)ccc5c4[C@@]31CCN(CC1CC1)[C@@H]2C5 [Compound 7g] is less than 3 nM?
Marked response: Condition met
